Target: CPT1 in rat mitochondria (liver) (Rattus norvegicus, UniProt P32198)
Sequence (P32198 1-773): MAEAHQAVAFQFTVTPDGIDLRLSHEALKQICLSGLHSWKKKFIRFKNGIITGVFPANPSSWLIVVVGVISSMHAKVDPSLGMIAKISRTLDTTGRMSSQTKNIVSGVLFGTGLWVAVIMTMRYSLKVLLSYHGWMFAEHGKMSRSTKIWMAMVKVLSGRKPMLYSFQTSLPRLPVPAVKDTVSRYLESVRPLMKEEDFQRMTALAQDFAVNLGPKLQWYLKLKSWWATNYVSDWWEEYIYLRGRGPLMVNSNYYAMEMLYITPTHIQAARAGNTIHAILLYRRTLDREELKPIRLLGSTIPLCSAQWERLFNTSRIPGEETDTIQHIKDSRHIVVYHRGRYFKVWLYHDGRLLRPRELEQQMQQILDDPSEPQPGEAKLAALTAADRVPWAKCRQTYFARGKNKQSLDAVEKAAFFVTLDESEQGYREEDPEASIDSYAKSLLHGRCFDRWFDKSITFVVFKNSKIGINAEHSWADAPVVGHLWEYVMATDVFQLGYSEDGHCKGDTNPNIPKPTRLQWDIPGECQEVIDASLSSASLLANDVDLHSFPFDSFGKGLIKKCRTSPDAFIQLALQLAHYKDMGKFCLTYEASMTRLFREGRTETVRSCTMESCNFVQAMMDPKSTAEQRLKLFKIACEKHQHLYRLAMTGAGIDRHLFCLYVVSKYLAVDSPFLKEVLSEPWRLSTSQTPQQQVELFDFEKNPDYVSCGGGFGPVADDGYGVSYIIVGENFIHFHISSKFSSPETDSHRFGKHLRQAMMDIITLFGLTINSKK
READOUT_LABEL: pIC50
# reply with the number alone; pIC50 is -log10 of concentration in mol/L

Give its pIC50 value. Item: CCCCCCOc1cccc(OCCCCNC(=O)N[C@H](CC(=O)[O-])C[P+](C)(C)C)c1 [ST2452]
6.92
